Test system: CCRIS mutagenicity, Ames/micronucleus/aberration tests
assay_protocol: CCRIS mutagenicity studies
details: Test System: AMES SALMONELLA TYPHIMURIUM; Strain/Indicator: TA100; Metabolic Activation: RAT, LIVER, S-9, AROCLOR 1254; Method: STANDARD PLATE
Excerpt: The CCRIS database contains chemical records with carcinogenicity, mutagenicity, tumor promotion, and tumor inhibition test results. It was developed by the National Cancer Institute (NCI). Data are derived from studies cited in primary journals, current awareness tools, NCI reports, and other sources. Test results have been reviewed by experts in carcinogenesis and mutagenesis. CCRIS provides historical information from the years 1985 - 2011. It is no longer updated. […]
Activity calls are given as the source filed them. The rule behind the calls is not given here.
A correct response names exactly one class from active, inactive

Returns: the outcome recorded for O=[N+]([O-])c1ccc2ccc3c4c(cc5ccc1c2c53)CCC=C4 in this assay.
active

Returns: the outcome recorded for Clc1cccc2cc3ccccc3cc12 in this assay.
inactive

Returns: the outcome recorded for COC1C2C(=O)C34C(=O)c5c(O)cc(C)cc5C(=O)C35C3C(=O)C46C(=O)c4c(O)cc(C)cc4C(=O)C26C(C3OC)C15 (stereo unspecified) in this assay.
inactive

Returns: the outcome recorded for O[C@@H]1C=Cc2ccc3c(ccc4ccccc43)c2[C@H]1O in this assay.
active

Returns: the outcome recorded for COc1cc(/C=C/C(=O)CC(=O)/C=C/c2ccc(O)c(OC)c2)ccc1O in this assay.
inactive

Returns: the outcome recorded for CCN(CC)c1cc(NC(C)=O)c(N=Nc2ccc([N+](=O)[O-])cc2)cc1OC in this assay.
active

Returns: the outcome recorded for c1ccc(N=Nc2ccccc2)cc1 in this assay.
active

Returns: the outcome recorded for C=CC(=O)OCCCCCCOC(=O)C=C in this assay.
inactive

Returns: the outcome recorded for CN1CCN(C2=Nc3cc(Cl)ccc3Nc3ccccc32)CC1 in this assay.
inactive

Returns: the outcome recorded for O=[N+]([O-])c1cc2c3ccccc3ccc2c2ccccc12 in this assay.
active

Returns: the outcome recorded for CCN(CC)c1ccc(N=Nc2c(Cl)cc([N+](=O)[O-])cc2Cl)cc1 in this assay.
inactive

###

System: CCRIS mutagenicity, Ames/micronucleus/aberration tests
assay_protocol: CCRIS mutagenicity studies
details: Test System: AMES SALMONELLA TYPHIMURIUM; Strain/Indicator: TA100; Metabolic Activation: NONE; Method: PREINCUBATION
Active and inactive are the calls of the source. No rule for the calls is given here.
A correct response names exactly one class from active, inactive

Returns: the outcome recorded for CCCCCCCC/C=C/CCCCCCCC(=O)OCCOCC(OCCO)C1OCC(OCCO)C1OCCO (configuration not stated) in this assay.
inactive

Returns: the outcome recorded for Nc1ccccc1Cl in this assay.
inactive

Returns: the outcome recorded for COc1cc(/C=C/C(=O)CC(=O)/C=C/c2ccc(O)c(OC)c2)ccc1O in this assay.
inactive

Returns: the outcome recorded for O=NN1C(C(=O)O)CSC1C(O)C(O)C(O)C(O)CO (configuration not stated) in this assay.
inactive

Returns: the outcome recorded for O[C@@H]1[C@H]2O[C@H]2c2c(ccc3c4ccccc4c4ccccc4c23)[C@H]1O in this assay.
active

Returns: the outcome recorded for CC(CCl)OP(=O)(OC(C)CCl)OC(C)CCl (configuration not stated) in this assay.
inactive

Returns: the outcome recorded for O=C(O)C(Cl)(Cl)Cl in this assay.
inactive

Returns: the outcome recorded for CCCCCCCCCCCCCCCCCCCC in this assay.
inactive

Returns: the outcome recorded for COc1ccc2cc1Oc1ccc(cc1)C[C@H]1c3c(cc4c(c3Oc3cc5c(cc3OC)CCN(C)[C@@H]5C2)OCO4)CCN1C in this assay.
inactive

Returns: the outcome recorded for O=c1oc2c([N+](=O)[O-])ccc3ccc4cccc1c4c32 in this assay.
active

Returns: the outcome recorded for O=[N+]([O-])c1cc2c3ccccc3ccc2c2ccccc12 in this assay.
active

Returns: the outcome recorded for CCCCNCC in this assay.
inactive
